B1: KRT13 (parent)
chain: YGGGLGGGFGGGFAGGFVDFGACD

# Variants of: B1
# protocolText: protein stability index of a GFP-peptide fusion (GPS, HEK-293T) (PSI 1-6); higher = more stable;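 also: lentivirally expressed fusions sorted by FACS into six bins by GFP to DsRed ratio, PSI derived from sequencing read proportions per bin multiplied by bin number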
# condition: c terminus: a fixed tail appended
Known protein stability index of a selection of variants
The answer should be written as a number, with no unit following it.

[in] // query protein stability index value for entry YGGGLGGGFGGGFAGGFYDFGACD [V18Y]
[out] 1.58

[in] // query protein stability index value for entry YGGGLGGGFGGGFAGGFVDFGDCD [A22D]
[out] 1.42

[in] // query protein stability index value for entry YGGGLGGGFKGGFAGGFVDFGACD [G10K]
[out] 1.53

[in] // query protein stability index value for entry YGGGLGGGFGGGFAGGFPDFGACD [V18P]
[out] 1.96

[in] // query protein stability index value for entry YSGGLGGGFGGGFAGGFVDFGACD [G2S]
[out] 1.54

[in] // query protein stability index value for entry YGGGLGGGFGKGFAGGFVDFGACD [G11K]
[out] 1.97

[in] // query protein stability index value for entry YLGGLGGGFGGGFAGGFVDFGACD [G2L]
[out] 3.13

[in] // query protein stability index value for entry YVGGLGGGFGGGFAGGFVDFGACD [G2V]
[out] 3.25

[in] // query protein stability index value for entry YGGGLGGGFGGGMAGGFVDFGACD [F13M]
[out] 2.28
